observed property: melting point

1. Cc1cccc(C2CC(=O)c3ccccc3O2)c1 (stereo not given)    156 to 158 °C

Here are 3 compounds. What values of melting point were reported for them?
1. Fc1ccc(CNc2nc(OCC(F)(F)F)nc(-c3ccccc3)n2)cc1
2. C=Cc1cc(C=Cc2cc(C(C)(C)C)cc(C(C)(C)C)c2)cc(C=Cc2cc(C(C)(C)C)cc(C(C)(C)C)c2)c1
3. Cc1ccc(S(=O)(=O)Nc2ccc3[nH]c(=O)c4ccccc4c3c2)cc1

A:
1: 170 to 172 °C; 2: 143 to 145 °C; 3: 199 to 203 °C

Here are 8 compounds. What values of melting point were reported for them?
1. O=C1C=C(O)CC(c2ccccc2)N1 (stereo not given)
2. O=C(Nc1ccc(Cl)c(C(F)(F)F)c1)c1ccccc1SSc1ccccc1C(=O)Nc1ccc(Cl)c(C(F)(F)F)c1
3. Cn1ccnc1S(=O)(=O)C(C)(Cc1ccc(-c2ccccc2)cc1)C(=O)NO (stereo not given)
4. CC(=O)N1N=C(c2ccc([N+](=O)[O-])c(C)c2)c2cc3c(cc2CC1(C)C#N)OCO3 (stereo not given)
5. O=C(O)c1cc(Cl)cc2c1O[C@@H]1C=CCC[C@H]21 (relative stereo)
6. CC(=O)n1cc(C2C(=O)CC(C)(C)CC2=O)c2ccccc21
7. CCOC(=O)c1c(N)oc(-c2ccc([N+](=O)[O-])cc2)c1C(=O)OCC
8. O=C1CC2CCSc3sccc3C2=NN1 (stereo not given)

A:
["166 to 169 °C", "129 to 131 °C", "112 °C", "253 to 255 °C", "147 to 150 °C", "225 to 227 °C", "174 to 177 °C", "215 to 217 °C"]

Here are 3 compounds. What values of melting point were reported for them?
1. CC(=O)OC(C)(C)c1nnc(-c2ccc3occ(-c4cc(F)ccc4F)c3c2)o1
2. Cc1nn(-c2c(Cl)cc(C(F)(F)F)cc2Cl)nc1C(=O)Nc1ccccc1
3. COc1c(F)ccc2c(C3CCN(C(=O)OC(C)(C)C)CC3)noc12

A:
["125 to 126 °C", "185 to 186 °C", "94 to 96 °C"]

###

Exercise: for every item that follows, state its recorded melting point.

Guide cases for melting point, answers given:
1. CCC(C)(C)N=C(NC#N)Nc1cc(Br)cc(Br)c1    168 to 170 °C
2. C=CCn1c(=O)c2c(nc(/C=C/c3ccc(O)c(OC)c3)n2C)n(CC=C)c1=O    202 to 203 °C

Pending molecule:
Q: Tell me measured melting point for O=C1NC(=O)C2(c3cccc([N+](=O)[O-])c3)CC12 (stereo not drawn) please.
A: 173 to 174 °C

###

observed property: melting point

Guide cases for melting point, answers given:
1. O=c1c2c(c1=O)NCCCN2    335 °C
2. ON=c1cc(-c2cc3sccc3cn2)oc2ccc(OCCc3ccc(F)cc3)cc12    228 to 234 °C
3. Cc1nnc2cccc(-c3ccccn3)n12    168 to 170 °C
4. CN(C)CCC(CCO)c1ccncc1 (centres undefined)    26 °C
5. CCCCCCCCCCOc1cc(OCCCCCCc2cccc(O)c2O)cc(C(=O)OC)c1    71 to 72 °C
6. CCOC(=O)Nc1c(C(=O)c2ccccc2)[nH]c2cc(Cl)ccc12    159 to 161 °C
7. COC(=O)c1ccccc1NCCCc1ccccc1    103 to 105 °C
8. COc1cc2cc3ncc(C#N)c(Nc4ccc(Cl)cc4Cl)c3cc2cc1OC    271 to 273 °C

Pending compound:
Q: Tell me measured melting point for Cc1ccc(S(=O)(=O)NC(=O)NCCc2ccc(-n3c(C(C)O)nc4cc(C(F)(F)F)c(Cl)cc43)cc2)cc1 (centres undefined) please.
A: 220 °C
